Please go through the items and note down their remaining activity at 1 µM.
Tgt: human σ2 receptor (TMEM97) (Homo sapiens)
Sequence (Q5BJF2 whole entry): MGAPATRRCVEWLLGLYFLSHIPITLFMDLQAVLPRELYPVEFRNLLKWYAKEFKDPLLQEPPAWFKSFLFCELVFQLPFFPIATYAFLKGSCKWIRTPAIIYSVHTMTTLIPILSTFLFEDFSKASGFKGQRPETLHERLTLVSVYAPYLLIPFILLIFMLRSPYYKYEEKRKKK
Test summary: biochemical
Format: Expi293 membranes
Condition description: read-out: % of control remaining
Report only the number, with the unit % understood.

Look at this compound and give its reported remaining activity at 1 µM. CCC(C)(C)N1CCN(c2nc(N)nc(C(F)(F)C(F)(F)F)n2)CC1
38.7

Please answer likewise for O=C(NC1CC1)C(=O)N1CCN(S(=O)(=O)C[C@@H]2CCCO2)CC1
120

Please answer likewise for COc1cccc2ncnc(N3CCN(CC4CCOCC4)CC3)c12
109

Please answer likewise for CN(C)S(=O)(=O)CCC(=O)N[C@H]1[C@@H]2CN(Cc3ccon3)C[C@@H]21
109

Please answer likewise for Cc1ccc(CC2CN(CC3(O)CCSCC3)C2)cc1
9.3

Please answer likewise for C[C@H](Cn1cncn1)N[C@@H]1CCN(c2ccccc2C(F)(F)F)C1
83.1

Please answer likewise for C[C@H](C(=O)NCc1ccc(F)cc1)N1C[C@H]2C[C@@H](O)CC[C@H]2C1
88.6

Please answer likewise for CC(C)N1C[C@H](NC(=O)N[C@@H](C)c2ccc(Br)s2)[C@@H](C)C1
75.3

Please answer likewise for C[C@@H]1CN(CC(=O)NCCCO[C@@H](C)c2ccccc2)[C@H](C)CCO1
112

Please answer likewise for Cn1nccc1C(=O)N1C[C@@H](O)[C@H](NC(=O)c2c[nH]nc2C2CC2)C1
95.7

Please answer likewise for COC(=O)C[C@H]1CCCN1C[C@@H](O)Cc1cccc(Cl)c1
111

Please answer likewise for CN(C[C@H]1CCCN1C)C(=O)[C@]1(C)CC(c2ccccc2Cl)=NO1
94.8

Please answer likewise for FC(F)(F)c1ccnc([C@H]2CCN(C[C@@H]3C[C@H]3c3ccccc3)C2)n1
5.1

Please answer likewise for O=C(Nc1ccc2c(=O)[nH]ccc2c1)C(=O)N1C[C@H](CO)[C@@H](O)C1
93.3

Please answer likewise for c1ccc(-n2cncn2)c(CN2CCC[C@H](N3CCCC3)CC2)c1
55.7

Please answer likewise for Cc1nc[nH]c1C(=O)N1CC(O)(CNC(=O)CN2CC[C@H](C)C2)C1
101

Please answer likewise for OC[C@]1(CNC2=NCCCN2)CCc2ccccc21
55.9

Please answer likewise for C[C@@H](CC(N)=O)NC[C@H](CO)Cc1cc(Br)ccc1F
100

Please answer likewise for CC(C)N1C[C@H](NC(=O)c2ccn(Cc3ccccc3)c2)[C@@H](C)C1
99.8

Please answer likewise for O=C(NCC1CN(CCC2CCCC2)C1)C1(c2cccnc2)CC1
43.6

Please answer likewise for O=C(NC1CCCCC1)C(=O)NC1CCN(C[C@H]2CCCO2)CC1
83.3

Please answer likewise for CC[C@H](C)CNC[C@H]1CCC[C@H]1NS(C)(=O)=O
98.5

Please answer likewise for O=C([C@@H]1CCc2nnc(O)n2C1)N1CC(CNC(=O)C(F)(F)F)C1
78.6

Please answer likewise for O=C([C@H]1CCOC1)N1CCOC2(C1)CN(C(=O)[C@@]1(F)CCOC1)C2
99.1

Please answer likewise for CCCN(C)C[C@H]1CCN([C@H](C)C(=O)c2c[nH]c3ncccc23)C1
28.3

Please answer likewise for NC(=O)[C@H](Cc1ccc(Cl)cc1)NCc1cc2ccccc2s1
98.7
